Source of measurements: patent US10709692B2

target: receptor interacting protein kinase 1 (GST-hRIPK1 (8-327)) (Homo sapiens); construct: GST-hRIPK1 (8-327) enzyme was generated by Proteros GmbH by Baculovirus expression system; experiment: ADP-Glo luminescence assay, RIPK1 autophosphorylation; format: biochemical; details: 1.5 μg/mL GST-hRIPK1 (8-327), 50 μM ATP, 3 hours at room temperature
pIC50: −log10 of the molar value.
recorded.metric: pIC50

These solved cases illustrate the format of a correct answer.
INSERT INTO results (molecule, recorded_metric, result) VALUES
  ('Cn1c(C#N)ccc1C(=O)N1OCC[C@H]1c1ccccc1', 'pIC50', '> 6.00'),
  ('CC(C)(C(=O)N1OCC[C@H]1c1ccc(F)cc1)C(F)F', 'pIC50', '> 6.00');

Field: pIC50. Fill in for each record below.
1. O=C(C1COC1)N1OCC[C@H]1c1ccccc1
2. CC(C)(C)C(=O)N1OCC[C@H]1c1ccccc1
3. CC(C)(C)C(=O)N1OCC[C@H]1c1ccc(C#N)cc1

Output:
1. 5.00 to 6.00
2. > 6.00
3. > 6.00

Field: pIC50. Fill in for each record below.
1. CN(C)C(=O)N1OCC[C@H]1c1ccccc1
2. CC(C)(C(=O)N1OCC[C@H]1c1ccc(C#N)cc1)C(F)F
3. CC(C)(C)C(=O)N1OCC[C@@H]1c1ccccc1
4. CC(C)(C)C(=O)N1OCC[C@H]1c1ccccc1F
5. Cn1c(C#N)ccc1C(=O)N1OCCC1c1c(F)cccc1Cl (racemic)

Output:
["5.00 to 6.00", "> 6.00", "< 5.00", "> 6.00", "> 6.00"]

---

Target: receptor interacting protein kinase 1 (GST-hRIPK1 (8-327)) (Homo sapiens)
Construct: GST-hRIPK1 (8-327) enzyme was generated by Proteros GmbH by Baculovirus expression system
Sequence (Q13546 8-327): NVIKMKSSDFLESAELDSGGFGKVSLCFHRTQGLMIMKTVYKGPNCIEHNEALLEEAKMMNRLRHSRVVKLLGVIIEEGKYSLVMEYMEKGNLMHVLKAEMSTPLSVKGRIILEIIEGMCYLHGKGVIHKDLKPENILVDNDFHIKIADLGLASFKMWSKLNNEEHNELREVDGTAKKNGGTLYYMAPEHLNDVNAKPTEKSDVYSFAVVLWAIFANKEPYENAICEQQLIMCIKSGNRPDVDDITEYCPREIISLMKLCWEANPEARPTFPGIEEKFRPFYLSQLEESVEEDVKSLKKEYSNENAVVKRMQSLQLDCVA
Assay: Fluorescent Polarization Binding (FP Binding) assay
Settings: 10 nM GST-hRIPK1 (8-327), 5 nM fluorescent-labeled ligand, 30 min at RT
Would you mind telling me the reported IC50 of each entry?

These solved cases illustrate the format of a correct answer.
INSERT INTO results (compound, assayed_target, result) VALUES
  ('CC1(C(=O)N2OCC[C@H]2c2ccc(F)nc2)CCOC1 (single isomer, unassigned) [Compound 142]', 'receptor interacting protein kinase 1 (GST-hRIPK1 (8-327)) (Homo sapiens)', '< 1000 nM'),
  ('CC(C(=O)N1OCC[C@H]1c1ccc(F)cc1)C(F)F (single isomer, unassigned) [Compound 189]', 'receptor interacting protein kinase 1 (GST-hRIPK1 (8-327)) (Homo sapiens)', '< 1000 nM'),
  ('CC1CC1C(=O)N1OCC[C@H]1c1ccc(C#N)cc1 (single isomer, unassigned) [Compound 215]', 'receptor interacting protein kinase 1 (GST-hRIPK1 (8-327)) (Homo sapiens)', '< 1000 nM');

Field: IC50. Fill in for each record below.
1. O=C(N1OCC[C@H]1c1ccc(F)nc1)C1(C(F)F)CCC1
2. CC1(C(=O)N2OCC[C@H]2c2ccc(F)cc2)CCCO1 (single isomer, unassigned) [Compound 137]
3. O=C(Nc1ccccc1)N1OCC[C@H]1c1ccccc1

Output:
["< 1000 nM", "1000 to 10000 nM", "< 1000 nM"]
